Tested on: HeLa Kyoto;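 note: HeLa Kyoto cells arrested at G1/S by double thymidine block, proteins quantified by TMT10plex mass spectrometry in mild NP-40 versus SDS extracts, three biological replicates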
Assay: solubility in G1/S (NP-40 vs SDS abundance) (log2 ratio); higher = more soluble
Conditions: cell cycle stage: G1/S
// rule not met strictly below 0.2 in solubility in G1/S (log2); rule met otherwise

1. MASGTTTTAVKIGIIGGTGLDDPEILEGRTEKYVDTPFGKPSDALILGKIKNVDCVLLARHGRQHTIMPSKVNYQANIWALKEEGCTHVIVTTACGSLREEIQPGDIVIIDQFIDRTTMRPQSFYDGSHSCARGVCHIPMAEPFCPKTREVLIETAKKLGLRCHSKGTMVTIEGPRFSSRAESFMFRTWGADVINMTTVPEVVLAKEAGICYASIAMATDYDCWKEHEEAVSVDRVLKTLKENANKAKSLLLTTIPQIGSTEWSETLHNLKNMAQFSVLLPRH [MTAP] = rule met

Request: API: above_or_equal(metric=solubility in G1/S (log2), cutoff=0.2) for item MAGDSEQTLQNHQQPNGGEPFLIGVSGGTASGKSSVCAKIVQLLGQNEVDYRQKQVVILSQDSFYRVLTSEQKAKALKGQFNFDHPDAFDNELILKTLKEITEGKTVQIPVYDFVSHSRKEETVTVYPADVVLFEGILAFYSQEVRDLFQMKLFVDTDADTRLSRRVLRDISERGRDLEQILSQYITFVKPAFEEFCLPTKKYADVIIPRGADNLVAINLIVQHIQDILNGGPSKRQTNGCLNGYTPSRKRQASESSSRPH [UCK2]
Result: rule met

Request: API: above_or_equal(metric=solubility in G1/S (log2), cutoff=0.2) for item MATGQKLMRAVRVFEFGGPEVLKLRSDIAVPIPKDHQVLIKVHACGVNPVETYIRSGTYSRKPLLPYTPGSDVAGVIEAVGDNASAFKKGDRVFTSSTISGGYAEYALAADHTVYKLPEKLDFKQGAAIGIPYFTAYRALIHSACVKAGESVLVHGASGGVGLAACQIARAYGLKILGTAGTEEGQKIVLQNGAHEVFNHREVNYIDKIKKYVGEKGIDIIIEMLANVNLSKDLSLLSHGGRVIVVGSRGTIEINPRDTMAKESSIIGVTLFSSTKEEFQQYAAALQAGMEIGWLKPVIGSQYPLEKVAEAHENIIHGSGATGKMILLL [CRYZ]
Result: rule met

Request: API: above_or_equal(metric=solubility in G1/S (log2), cutoff=0.2) for item MEGCVSNLMVCNLAYSGKLEELKESILADKSLATRTDQDSRTALHWACSAGHTEIVEFLLQLGVPVNDKDDAGWSPLHIAASAGRDEIVKALLGKGAQVNAVNQNGCTPLHYAASKNRHEIAVMLLEGGANPDAKDHYEATAMHRAAAKGNLKMIHILLYYKASTNIQDTEGNTPLHLACDEERVEEAKLLVSQGASIYIENKEEKTPLQVAKGGLGLILKRMVEG [PSMD10]
Result: rule not met
